Assay: in vivo
Design: species or system rat
Details: rat plasma, oral JHT 2 g/kg, non-compartmental
Label rule, in plain words: Cmax of 20 ng/mL and up is fulfilled, under 20 ng/mL is not fulfilled.

compound: O=C(O)C1OC(Oc2cc(O)c3c(=O)c(-c4ccc(O)cc4)coc3c2)C(O)C(O)C1O (centres unmarked) [Genistein 7-O-glucuronide, genistein 7-O-glucuronide]
group: fulfilled

compound: COc1ccc(C2CC(=O)c3c(O)cc(OC4OC(C(=O)O)C(O)C(O)C4O)cc3O2)cc1O (centres unmarked) [Hesperetin 7-O-glucuronide, hesperetin 7-O-glucuronide]
group: fulfilled

compound: O=C(C=Cc1ccc(O)cc1)c1ccc(O)cc1OC1OC(C(=O)O)C(O)C(O)C1O (centres unmarked) [Isoliquiritigenin 2′-O-glucuronide, isoliquiritigenin 2′-O-glucuronide]
group: not fulfilled

compound: O=C(C=Cc1ccc(OC2OC(C(=O)O)C(O)C(O)C2O)cc1)c1ccc(O)cc1O (centres unmarked) [Isoliquiritigenin 4-O-glucuronide, isoliquiritigenin 4-O-glucuronide]
group: not fulfilled

compound: O=C1CC(c2ccc(OC3OC(C(=O)O)C(O)C(O)C3O)cc2)Oc2cc(O)ccc21 (centres unmarked) [Liquiritigenin 4′-O-glucuronide, liquiritigenin 4′-O-glucuronide]
group: fulfilled

compound: COc1c(O)cc(C(=O)O)cc1O
group: not fulfilled

compound: O=C(C=Cc1ccc(O)cc1)c1ccc(OC2OC(C(=O)O)C(O)C(O)C2O)cc1O (centres unmarked) [Isoliquiritigenin 4′-O-glucuronide, isoliquiritigenin 4′-O-glucuronide]
group: not fulfilled

compound: O=C1CC(c2ccc(O)cc2)Oc2cc(OC3OC(C(=O)O)C(O)C(O)C3O)ccc21 (centres unmarked) [Liquiritigenin 7-O-glucuronide, liquiritigenin 7-O-glucuronide]
group: fulfilled

###

Assay: in vivo
Set-up: species or system rat
Settings: rat, plasma, po, 2 g/kg, rat plasma, 1 h after oral JHT 2 g/kg; read-out: plasma concentration before β-glucuronidase treatment
metric: concentration at 1 h

substanceSmiles: O=C1C[C@@H](c2ccc(O[C@@H]3O[C@H](CO)[C@@H](O)[C@H](O)[C@H]3O)cc2)Oc2cc(O)ccc21
measuredResult: 2.4 ng/mL
--
substanceSmiles: COc1c(O)cc(C(=O)O)cc1O
measuredResult: 5.57 ng/mL

###

Recorded log10 of AUC(0-t) for the following molecules
Test: in vivo
Parameters: species or system rat
Details: rat plasma, oral JHT 2 g/kg, non-compartmental
metric: log10 of AUC(0-t) (log10 of the value in ng·h/mL)

molecule: O=C(C=Cc1ccc(OC2OC(C(=O)O)C(O)C(O)C2O)cc1)c1ccc(O)cc1O (centres unmarked) [Isoliquiritigenin 4-O-glucuronide, isoliquiritigenin 4-O-glucuronide]
measuredResult: 0.26
//
molecule: O=C1CC(c2ccc(OC3OC(C(=O)O)C(O)C(O)C3O)cc2)Oc2cc(O)ccc21 (centres unmarked) [Liquiritigenin 4′-O-glucuronide, liquiritigenin 4′-O-glucuronide]
measuredResult: 2.72
//
molecule: COc1ccc(C2CC(=O)c3c(O)cc(OC4OC(C(=O)O)C(O)C(O)C4O)cc3O2)cc1O (centres unmarked) [Hesperetin 7-O-glucuronide, hesperetin 7-O-glucuronide]
measuredResult: 2.28
//
molecule: O=C(C=Cc1ccc(O)cc1)c1ccc(OC2OC(C(=O)O)C(O)C(O)C2O)cc1O (centres unmarked) [Isoliquiritigenin 4′-O-glucuronide, isoliquiritigenin 4′-O-glucuronide]
measuredResult: 1.91
//
molecule: O=C1CC(c2ccc(O)cc2)Oc2cc(OC3OC(C(=O)O)C(O)C(O)C3O)ccc21 (centres unmarked) [Liquiritigenin 7-O-glucuronide, liquiritigenin 7-O-glucuronide]
measuredResult: 2.35
//
molecule: O=C(C=Cc1ccc(O)cc1)c1ccc(O)cc1OC1OC(C(=O)O)C(O)C(O)C1O (centres unmarked) [Isoliquiritigenin 2′-O-glucuronide, isoliquiritigenin 2′-O-glucuronide]
measuredResult: 1.06
//
molecule: COc1c(O)cc(C(=O)O)cc1O [4-O-Methylgallic acid, 4-O-methylgallic acid]
measuredResult: 1.51
//
molecule: O=C(O)C1OC(Oc2cc(O)c3c(=O)c(-c4ccc(O)cc4)coc3c2)C(O)C(O)C1O (centres unmarked) [Genistein 7-O-glucuronide, genistein 7-O-glucuronide]
measuredResult: 2.91

###

Assay: in vivo
Design: species or system rat
Settings: rat plasma, oral JHT 2 g/kg, non-compartmental
Quick reference for half-life among some compounds
metric: half-life (h)

compound: COc1c(O)cc(C(=O)O)cc1O
metric: half-life
measuredResult: 1.62

compound: O=C(C=Cc1ccc(OC2OC(C(=O)O)C(O)C(O)C2O)cc1)c1ccc(O)cc1O (stereo not drawn) [Isoliquiritigenin 4-O-glucuronide, isoliquiritigenin 4-O-glucuronide]
metric: half-life
measuredResult: 5.68

compound: COc1ccc(C2CC(=O)c3c(O)cc(OC4OC(C(=O)O)C(O)C(O)C4O)cc3O2)cc1O (stereo not drawn) [Hesperetin 7-O-glucuronide, hesperetin 7-O-glucuronide]
metric: half-life
measuredResult: 2.99

compound: O=C(C=Cc1ccc(O)cc1)c1ccc(OC2OC(C(=O)O)C(O)C(O)C2O)cc1O (stereo not drawn) [Isoliquiritigenin 4′-O-glucuronide, isoliquiritigenin 4′-O-glucuronide]
metric: half-life
measuredResult: 2.25

compound: O=C1CC(c2ccc(OC3OC(C(=O)O)C(O)C(O)C3O)cc2)Oc2cc(O)ccc21 (stereo not drawn) [Liquiritigenin 4′-O-glucuronide, liquiritigenin 4′-O-glucuronide]
metric: half-life
measuredResult: 2.27

compound: O=C1CC(c2ccc(O)cc2)Oc2cc(OC3OC(C(=O)O)C(O)C(O)C3O)ccc21 (stereo not drawn) [Liquiritigenin 7-O-glucuronide, liquiritigenin 7-O-glucuronide]
metric: half-life
measuredResult: 2.72

###

Test: in vivo
Set-up: species or system rat
Conditions: rat, plasma, po, 2 g/kg, rat plasma, 1 h after oral JHT 2 g/kg; read-out: plasma concentration after β-glucuronidase treatment
metric: concentration at 1 h

compound: O=C1C[C@@H](c2ccc(O[C@@H]3O[C@H](CO)[C@@H](O)[C@H](O)[C@H]3O)cc2)Oc2cc(O)ccc21 [Liquiritin]
metric: concentration at 1 h
measuredResult: 0.0391 µg/mL

###

Assay: Antioxidant assay, hydrogen peroxide-dependent oxidation (OxiSelect In vitro ROS/RNS Assay, DCFH-DiOxyQ)
Format: biochemical
Conditions: hydrogen peroxide-dependent oxidation

molecule: O=C1C[C@@H](c2ccc(O)cc2)Oc2cc(O)ccc21
activity against ROS (in words): strong activity

molecule: COc1cc(C(=O)O)cc(O)c1O
activity against ROS (in words): strong activity

molecule: COc1c2c(cc3oc(CO)cc(=O)c13)O[C@H](C(C)(C)O)C2 [Cimifugin, cimifugin, reference compound]
activity against ROS (in words): no activity

molecule: O=C1CC(c2ccc(OC3OC(C(=O)O)C(O)C(O)C3O)cc2)Oc2cc(O)ccc21 (centres unmarked) [Liquiritigenin 4′-O-glucuronide, liquiritigenin 4′-O-glucuronide]
activity against ROS (in words): no activity

molecule: CC1(C)[C@@H](O)CC[C@]2(C)[C@H]3C(=O)C=C4[C@@H]5C[C@@](C)(C(=O)O)CC[C@]5(C)CC[C@@]4(C)[C@]3(C)CC[C@@H]12 [Glycyrrhetic acid, glycyrrhetic acid, reference compound]
activity against ROS (in words): no activity

###

Assay: in vivo
Parameters: species or system rat
Details: rat, in vivo, po, 2 g/kg, rat plasma, 24 h after oral JHT 2 g/kg; read-out: plasma concentration after β-glucuronidase treatment
Procedure: The higher dose than that in the pharmacological test was used to detect more constituents. […] For quantification of liquiritin, liquiritigenin, isoliquiritin, isoliquiritigeniin, hesperidin, hesperetin, castalagin, and all flavonoid glucuronides, 25–60 µL of standard solution and 25 µL of internal standard solution were added to 200–300 µL of plasma samples, followed by mixing well. […]

substanceSmiles: O=c1c(-c2ccc(O)cc2)coc2cc(O)cc(O)c12
concentration at 24 h (ng/mL): 78.3

###

Assay: in vivo
Parameters: species or system rat
Conditions: rat plasma, oral JHT 2 g/kg, non-compartmental
tmax values, listed per item

compound: O=C1CC(c2ccc(O)cc2)Oc2cc(OC3OC(C(=O)O)C(O)C(O)C3O)ccc21 (centres unmarked) [Liquiritigenin 7-O-glucuronide, liquiritigenin 7-O-glucuronide]
tmax, H: 2.00

compound: O=C(C=Cc1ccc(O)cc1)c1ccc(OC2OC(C(=O)O)C(O)C(O)C2O)cc1O (centres unmarked) [Isoliquiritigenin 4′-O-glucuronide, isoliquiritigenin 4′-O-glucuronide]
tmax, H: 0.250

compound: O=C(O)C1OC(Oc2cc(O)c3c(=O)c(-c4ccc(O)cc4)coc3c2)C(O)C(O)C1O (centres unmarked) [Genistein 7-O-glucuronide, genistein 7-O-glucuronide]
tmax, H: 24.0

compound: O=C(C=Cc1ccc(OC2OC(C(=O)O)C(O)C(O)C2O)cc1)c1ccc(O)cc1O (centres unmarked) [Isoliquiritigenin 4-O-glucuronide, isoliquiritigenin 4-O-glucuronide]
tmax, H: 0.250

compound: O=C(C=Cc1ccc(O)cc1)c1ccc(O)cc1OC1OC(C(=O)O)C(O)C(O)C1O (centres unmarked) [Isoliquiritigenin 2′-O-glucuronide, isoliquiritigenin 2′-O-glucuronide]
tmax, H: 0.250

compound: COc1ccc(C2CC(=O)c3c(O)cc(OC4OC(C(=O)O)C(O)C(O)C4O)cc3O2)cc1O (centres unmarked) [Hesperetin 7-O-glucuronide, hesperetin 7-O-glucuronide]
tmax, H: 4.00

compound: O=C1CC(c2ccc(OC3OC(C(=O)O)C(O)C(O)C3O)cc2)Oc2cc(O)ccc21 (centres unmarked) [Liquiritigenin 4′-O-glucuronide, liquiritigenin 4′-O-glucuronide]
tmax, H: 2.00

compound: COc1c(O)cc(C(=O)O)cc1O [4-O-Methylgallic acid, 4-O-methylgallic acid]
tmax, H: 2.00
